target: Ba/F3 ERBB2 YVMA (Homo sapiens, UniProt P04626, DUP772-775, cells depend on it); assay: Cell viability assay (CellTiter Glo) in Ba/F3 cells engineered to express ERBB2 YVMA; format: cell-based, mouse; conditions: Ba/F3 cells expressing human ERBB2 YVMA mutant, 72 hours, % viability, read-out: Ba/F3 ERBB2 YVMA IC50
Sequence (P04626 with tags, fused parts or gaps DUP772-775): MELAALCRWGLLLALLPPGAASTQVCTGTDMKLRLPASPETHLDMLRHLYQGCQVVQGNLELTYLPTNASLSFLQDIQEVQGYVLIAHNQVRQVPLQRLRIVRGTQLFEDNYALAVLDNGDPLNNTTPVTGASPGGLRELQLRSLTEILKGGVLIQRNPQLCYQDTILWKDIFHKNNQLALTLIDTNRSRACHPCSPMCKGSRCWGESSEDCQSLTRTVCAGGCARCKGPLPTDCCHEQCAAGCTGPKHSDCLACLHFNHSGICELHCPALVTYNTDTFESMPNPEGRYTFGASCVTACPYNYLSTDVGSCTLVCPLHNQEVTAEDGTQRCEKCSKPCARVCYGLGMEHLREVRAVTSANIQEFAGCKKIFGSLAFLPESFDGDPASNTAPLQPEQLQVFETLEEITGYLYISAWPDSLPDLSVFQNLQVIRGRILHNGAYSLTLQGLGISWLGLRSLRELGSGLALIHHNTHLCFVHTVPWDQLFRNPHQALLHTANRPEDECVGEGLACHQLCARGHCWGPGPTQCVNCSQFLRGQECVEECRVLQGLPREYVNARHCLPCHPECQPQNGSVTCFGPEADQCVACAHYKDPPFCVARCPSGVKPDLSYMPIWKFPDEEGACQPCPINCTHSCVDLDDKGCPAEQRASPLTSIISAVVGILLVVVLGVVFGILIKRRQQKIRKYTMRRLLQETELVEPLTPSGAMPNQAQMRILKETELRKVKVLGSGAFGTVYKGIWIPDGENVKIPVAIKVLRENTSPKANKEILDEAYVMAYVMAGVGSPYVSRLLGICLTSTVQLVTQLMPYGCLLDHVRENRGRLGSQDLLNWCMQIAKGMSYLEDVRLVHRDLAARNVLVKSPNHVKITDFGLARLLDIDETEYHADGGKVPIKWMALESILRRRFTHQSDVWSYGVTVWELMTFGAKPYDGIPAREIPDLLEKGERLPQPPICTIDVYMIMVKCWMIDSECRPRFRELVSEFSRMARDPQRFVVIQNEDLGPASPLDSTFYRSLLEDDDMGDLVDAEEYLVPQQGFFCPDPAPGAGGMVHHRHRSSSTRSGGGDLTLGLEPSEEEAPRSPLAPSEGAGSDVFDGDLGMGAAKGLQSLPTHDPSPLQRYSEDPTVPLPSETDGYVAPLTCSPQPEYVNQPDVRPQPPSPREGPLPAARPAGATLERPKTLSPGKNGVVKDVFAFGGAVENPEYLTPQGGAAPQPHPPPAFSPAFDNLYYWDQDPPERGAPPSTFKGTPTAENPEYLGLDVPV
# label = true if GI50 < 20 nM else false

1) Cc1cc(Nc2ncnc3ccc(N4CCN(C(=O)/C=C/CN(C)C)CC4C)c(F)c23)ccc1Cc1ccn2ncnc2c1 (stereo not drawn) :: false
2) C=CC(=O)N1CCN(c2ncc3ncnc(Nc4ccc(Cc5ccn6ncnc6c5)c(C)c4)c3n2)C[C@H]1C :: false
3) C=CC(=O)N1CCN(c2ncc3ncnc(Nc4ccc(Oc5ccc6c(c5)ncn6C)c(C)c4)c3n2)CC1 :: true
4) CC#CC(=O)N1CCN(c2ccc3ncnc(Nc4ccc(O[C@H]5CCCOC5)c(C)c4)c3n2)CC1 :: false
5) C=CC(=O)N1CCN(c2cc3c(Nc4ccc(Oc5ccc(C(=O)NCC(C)(C)C)cc5)c(C)c4)ncnc3cn2)CC1 :: false
6) C=CC(=O)N1CC[C@H](Oc2ccc3ncnc(Nc4ccc(Oc5ccc6c(c5)ncn6C)c(C)c4)c3n2)C1 :: true
7) C=CC(=O)N1CCN(c2ccc3ncnc(Nc4ccc(Cc5ccn6ncnc6c5)c(C)c4)c3n2)CC1 :: true
8) C=CC(=O)N1CCN(c2ccc3ncnc(Nc4ccc(Oc5ccn6ncnc6c5)c(C)c4)c3n2)[C@@H](C)C1 :: true
9) C=CC(=O)N1CCN(c2ccc3ncnc(Nc4ccc(Cc5ccn6ncnc6c5)c(C)c4)c3c2)CC1 :: true
10) C=CC(=O)N1CCN(c2ccc3ncnc(Nc4ccc(O[C@@H]5CCCOC5)c(C)c4)c3n2)CC1 :: false
11) C=CC(=O)N1CC[C@@H](Oc2ccc3ncnc(Nc4ccc(Oc5ccc6c(c5)ncn6C)c(C)c4)c3c2)C1 :: false
12) C=CC(=O)N1CC2CC1CN2c1ccc2ncnc(Nc3ccc(Oc4ccn5ncnc5c4)c(C)c3)c2n1 (stereo not drawn) :: true
13) C=CC(=O)N1CCN(c2ccc3ncnc(Nc4ccc(CN5CCn6ncnc6C5)c(C)c4)c3c2)CC1 :: false
14) C=CC(=O)N1CCC[C@@H](Nc2ccc3ncnc(Nc4ccc(Oc5ccn6ncnc6c5)c(C)c4)c3n2)C1 :: false
15) C=CC(=O)N1C2CC1CN(c1ccc3ncnc(Nc4ccc(Oc5ccn6ncnc6c5)c(C)c4)c3n1)C2 :: true

* * *

Items are presented alongside their recorded pIC50.
molecular target: phosphorylated ERBB2 (pERBB2) (Homo sapiens, UniProt P04626); construct: endogenous in cells; assay: Detection of phosphorylated ERBB2 (pERBB2) by ELISA in BT-474 cells; details: four hour incubation with compound
Sequence (P04626 23-1255): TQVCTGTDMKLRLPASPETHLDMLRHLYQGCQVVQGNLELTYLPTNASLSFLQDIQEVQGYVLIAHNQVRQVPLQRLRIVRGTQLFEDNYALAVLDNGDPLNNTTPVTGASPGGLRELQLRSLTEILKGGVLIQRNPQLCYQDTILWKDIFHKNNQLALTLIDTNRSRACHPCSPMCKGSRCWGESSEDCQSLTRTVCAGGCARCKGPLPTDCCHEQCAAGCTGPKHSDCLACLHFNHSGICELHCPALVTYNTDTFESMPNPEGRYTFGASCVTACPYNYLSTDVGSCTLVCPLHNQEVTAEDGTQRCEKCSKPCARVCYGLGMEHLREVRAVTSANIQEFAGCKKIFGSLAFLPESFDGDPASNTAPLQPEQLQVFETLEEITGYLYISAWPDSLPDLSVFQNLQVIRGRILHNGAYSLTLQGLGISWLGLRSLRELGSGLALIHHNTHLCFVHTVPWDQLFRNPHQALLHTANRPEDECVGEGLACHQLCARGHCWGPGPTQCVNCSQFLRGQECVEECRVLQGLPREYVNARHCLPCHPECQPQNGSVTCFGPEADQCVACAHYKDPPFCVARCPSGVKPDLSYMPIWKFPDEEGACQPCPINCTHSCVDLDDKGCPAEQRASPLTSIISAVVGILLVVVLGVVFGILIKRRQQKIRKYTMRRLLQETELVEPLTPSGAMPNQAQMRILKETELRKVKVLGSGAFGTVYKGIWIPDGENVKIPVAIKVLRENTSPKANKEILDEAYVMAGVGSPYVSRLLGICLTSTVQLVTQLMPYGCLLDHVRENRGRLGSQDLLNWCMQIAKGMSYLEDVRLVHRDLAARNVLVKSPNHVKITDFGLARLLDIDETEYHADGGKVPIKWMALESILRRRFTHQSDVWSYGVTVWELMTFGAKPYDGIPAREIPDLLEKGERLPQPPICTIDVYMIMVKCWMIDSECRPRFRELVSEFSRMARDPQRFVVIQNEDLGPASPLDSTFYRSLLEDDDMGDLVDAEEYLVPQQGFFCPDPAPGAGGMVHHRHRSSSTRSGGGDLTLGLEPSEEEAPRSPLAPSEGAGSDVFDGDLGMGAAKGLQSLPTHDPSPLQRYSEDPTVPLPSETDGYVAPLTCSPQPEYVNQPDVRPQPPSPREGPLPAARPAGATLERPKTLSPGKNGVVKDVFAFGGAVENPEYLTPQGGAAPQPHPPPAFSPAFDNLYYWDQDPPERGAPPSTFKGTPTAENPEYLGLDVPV
pIC50: −log10 of the molar value.
PARAMETER MEASURED: pIC50

1) Cc1cc(Nc2ncnc3ccc(N4CCN(C(=O)/C=C/CN(C)C)[C@H](C)C4)nc23)ccc1Oc1ccc2c(c1)ncn2C [Compound 80] :: 7.54
2) CC#CC(=O)N1CCN(c2ccc3ncnc(Nc4ccc(Oc5ccc6c(c5)ncn6C)c(C)c4)c3n2)CC1 [Compound 31] :: 7.54
3) C=CC(=O)N1CC2CC1CN2c1ccc2ncnc(Nc3ccc(Oc4ccn5ncnc5c4)c(C)c3)c2n1 (stereo not shown) [Compound 6] :: 7.86
4) C=CC(=O)N1CCN(c2ncc3ncnc(Nc4ccc(Oc5ccn6ncnc6c5)c(C)c4)c3n2)[C@@H](C)C1 [Compound 70] :: 7.79
5) C=CC(=O)N1CCC2(C1)CN(c1ccc3ncnc(Nc4ccc(Oc5ccn6ncnc6c5)c(C)c4)c3n1)C2 [Compound 21] :: 7.92
6) C=C(F)C(=O)N1CCN(c2ccc3ncnc(Nc4ccc(Oc5ccn6ncnc6c5)c(C)c4)c3n2)CC1 [Compound 13] :: 7.01
7) C=CC(=O)N1CCN(c2cc3c(Nc4ccc(Oc5ccc6c(c5)ncn6C)c(C)c4)ncnc3cn2)CC1 [Compound 106, formic acid] :: 7.74

* * *

// reported GI50 for each item listed
target: Ba/F3 ERBB2 YVMA (Homo sapiens, UniProt P04626, DUP772-775, cells depend on it); assay: Cell viability assay (CellTiter Glo) in Ba/F3 cells engineered to express ERBB2 YVMA; format: cell-based, mouse; details: Ba/F3 cells expressing human ERBB2 YVMA mutant, 72 hours, % viability, read-out: Ba/F3 ERBB2 YVMA IC50
PARAMETER MEASURED: GI50 (nM)

1) C=CC(=O)N1CCN(c2ccc3ncnc(Nc4ccc(Cc5ccc6c(c5)ncn6C)c(C)c4)c3n2)C[C@H]1C :: 14
2) C=CC(=O)N1CCN(c2ccc3ncnc(Nc4ccc(Oc5ccc6c(c5)ncn6C)c(C)c4)c3n2)[C@@H](C)C1 :: 13.9
3) CC#CC(=O)N1CCN(c2ccc3ncnc(Nc4ccc(O[C@@H]5CCCOC5)c(C)c4)c3n2)CC1 :: 288
4) C=CC(=O)N1CCN(c2ccc3ncnc(Nc4ccc(Cc5ccc6c(c5)ncn6C)c(C)c4)c3c2F)C[C@H]1C :: 22.6
5) C=CC(=O)N1CCN(c2cc3c(Nc4ccc(Oc5ccn6ncnc6c5)c(C)c4)ncnc3cn2)CC1 :: 13.4
6) Cc1cc(Nc2ncnc3ccc(N4CCN(C(=O)/C=C/CN(C)C)CC4)c(F)c23)ccc1Cc1ccn2ncnc2c1 :: 110

* * *

molecular target: phosphorylated EGFR (pEGFR) (Homo sapiens, UniProt P00533); construct: performed to measure phosphorylated EGFR levels using A431 cells; endogenous in cells; experiment: Detection of phosphorylated EGFR (pEGFR) in EGF-stimulated A431 cells (AlphaLISA); details: A431 cells (10% FBS), 4 hours incubation, EGF 30 ng/mL for 10 minutes
Sequence (P00533 25-1210): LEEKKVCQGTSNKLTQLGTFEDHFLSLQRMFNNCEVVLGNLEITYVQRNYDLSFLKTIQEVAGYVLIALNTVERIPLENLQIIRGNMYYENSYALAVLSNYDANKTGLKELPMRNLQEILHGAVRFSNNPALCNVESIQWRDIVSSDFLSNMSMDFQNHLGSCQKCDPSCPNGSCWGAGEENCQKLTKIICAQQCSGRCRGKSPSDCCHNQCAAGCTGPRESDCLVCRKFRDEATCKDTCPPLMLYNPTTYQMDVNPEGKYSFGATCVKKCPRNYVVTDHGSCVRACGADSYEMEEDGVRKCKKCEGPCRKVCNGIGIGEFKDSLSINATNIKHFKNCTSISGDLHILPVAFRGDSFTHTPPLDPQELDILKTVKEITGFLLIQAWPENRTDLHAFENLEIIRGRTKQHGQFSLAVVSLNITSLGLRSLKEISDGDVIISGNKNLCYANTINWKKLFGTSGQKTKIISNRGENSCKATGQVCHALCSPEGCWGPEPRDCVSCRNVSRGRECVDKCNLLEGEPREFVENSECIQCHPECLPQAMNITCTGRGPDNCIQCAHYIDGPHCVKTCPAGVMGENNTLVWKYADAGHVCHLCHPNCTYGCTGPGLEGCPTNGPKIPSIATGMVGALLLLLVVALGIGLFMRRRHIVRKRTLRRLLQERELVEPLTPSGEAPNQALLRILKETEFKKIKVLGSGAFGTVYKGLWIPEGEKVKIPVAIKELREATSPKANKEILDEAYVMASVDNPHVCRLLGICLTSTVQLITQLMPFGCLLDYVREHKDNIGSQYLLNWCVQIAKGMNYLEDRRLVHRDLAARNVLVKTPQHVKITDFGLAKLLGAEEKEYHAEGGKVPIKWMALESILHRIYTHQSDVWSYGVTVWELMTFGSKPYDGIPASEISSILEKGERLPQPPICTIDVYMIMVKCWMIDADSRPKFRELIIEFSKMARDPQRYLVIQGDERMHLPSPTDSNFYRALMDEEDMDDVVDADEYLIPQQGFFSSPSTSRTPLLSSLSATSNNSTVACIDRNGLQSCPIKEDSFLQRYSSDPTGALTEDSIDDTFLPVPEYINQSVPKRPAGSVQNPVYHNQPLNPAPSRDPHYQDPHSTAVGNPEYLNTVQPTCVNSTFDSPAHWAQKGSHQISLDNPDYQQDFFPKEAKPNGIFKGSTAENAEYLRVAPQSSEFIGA
Item-by-item account of IC50
PARAMETER MEASURED: IC50

1. C=CC(=O)N1CCN(c2ccc3ncnc(Nc4ccc(Oc5ccn6ncnc6c5)c(C)c4)c3n2)CC12CC2 :: 107 nM
2. C=CC(=O)N1CCN(c2ccc3ncnc(Nc4ccc(Oc5ccn6ncnc6c5)c(C)c4)c3n2)C[C@H]1C :: 294 nM
3. CC#CC(=O)N1CC2CC(C1)N2c1ccc2ncnc(Nc3ccc(Oc4ccn5ncnc5c4)c(C)c3)c2n1 :: > 10000 nM
4. C=CC(=O)N1CCN(c2ccc3ncnc(Nc4ccc(Cc5ccc6c(c5)ncn6C)c(C)c4)c3n2)C[C@H]1C :: 1460 nM
5. C=CC(=O)N1CCN(c2cc3c(Nc4ccc(Cc5ccn6ncnc6c5)c(C)c4)ncnc3cn2)[C@@H](C)C1 :: > 10000 nM
6. C=CC(=O)N1CCN(c2ccc3ncnc(Nc4ccc(Oc5ccc6c(c5)ncn6C)c(C)c4)c3n2)C[C@H]1C :: 1200 nM
7. C=CC(=O)N1CCN(c2ccc3ncnc(Nc4ccc(O[C@@H]5CCCOC5)c(C)c4)c3c2)CC1 :: 244 nM

* * *

This section presents compounds with their documented pIC50 values.
target: phosphorylated ERBB2 (pERBB2) (Homo sapiens); construct: endogenous in cells; assay: Detection of phosphorylated ERBB2 (pERBB2) by ELISA in BT-474 cells; details: four hour incubation with compound
pIC50: −log10 of the molar value.
PARAMETER MEASURED: pIC50

1. C=CC(=O)N1C2CCC1CN(c1ccc3ncnc(Nc4ccc(Cc5ccn6ncnc6c5)c(C)c4)c3n1)C2 :: 7.76
2. C=CC(=O)N1CCN(c2ccc3ncnc(Nc4ccc(Oc5ccc6c(c5)ncn6C)c(C)c4)c3c2)C[C@H]1C :: 7.50
3. C=CC(=O)N1CC[C@@H](Oc2ccc3ncnc(Nc4ccc(Oc5ccn6ncnc6c5)c(C)c4)c3c2)C1 :: 7.75
4. C=CC(=O)N1CCN(c2ccc3ncnc(Nc4ccc(Cc5ccc6c(c5)ncn6C)c(C)c4)c3n2)CC1 :: 7.27
5. C=CC(=O)N1CCN(c2ccc3ncnc(Nc4ccc(Oc5ccn6ncnc6c5)c(C)c4)c3n2)C[C@@H]1C :: 7.97
6. C=CC(=O)N1C2CCC1CN(c1ccc3ncnc(Nc4ccc(Cc5ccc6c(c5)ncn6C)c(C)c4)c3n1)C2 :: 7.28
7. C=CC(=O)N1CCN(c2ccc3ncnc(Nc4ccc(Oc5ccc6c(c5)ncn6C)c(C)c4)c3c2)[C@@H](C)C1 :: 7.72

* * *

molecular target: phosphorylated ERBB2 (pERBB2) (Homo sapiens); construct: endogenous in cells; assay: Detection of phosphorylated ERBB2 (pERBB2) by ELISA in BT-474 cells; settings: four hour incubation with compound
pIC50: −log10 of the molar value.
Examples of molecules with documented pIC50 follow.
PARAMETER MEASURED: pIC50

1) C=CC(=O)N1CCN(c2ccc3ncnc(Nc4ccc(Cc5ccc6c(c5)ncn6C)c(C)c4)c3c2)[C@@H](C)C1 [Compound 125] :: 7.02
2) C=CC(=O)N1CCN(c2ccc3ncnc(Nc4ccc(Oc5ccn6ncnc6c5)c(C)c4)c3n2)[C@@H](C)C1 [Compound 12] :: 7.87
3) CC#CC(=O)N1CCN(c2ccc3ncnc(Nc4ccc(Oc5ccn6ncnc6c5)c(C)c4)c3n2)[C@@H](C)C1 [Compound 25] :: 7.20
4) CC#CC(=O)N1CC2CC1CN2c1ccc2ncnc(Nc3ccc(Oc4ccn5ncnc5c4)c(C)c3)c2n1 (centres unmarked) [Compound 30] :: 7.21
5) C=CC(=O)N1CCC(Nc2ccc3ncnc(Nc4ccc(Oc5ccn6ncnc6c5)c(C)c4)c3n2)CC1 [Compound 40] :: 8.21
6) Cc1cc(Nc2ncnc3ccc(N4CCN(C(=O)/C=C/CN(C)C)C[C@@H]4C)nc23)ccc1Cc1ccc2c(c1)ncn2C [Compound 126] :: 6.84
7) C=CC(=O)N1CCC[C@H](Nc2ccc3ncnc(Nc4ccc(Oc5ccn6ncnc6c5)c(C)c4)c3n2)C1 [Compound 41] :: 7.74
8) C=CC(=O)N1CCN(c2ncc3ncnc(Nc4ccc(Cc5ccc6c(c5)ncn6C)c(C)c4)c3n2)CC1 [Compound 84] :: 7.60
9) C=CC(=O)N1CCN(c2ccc3ncnc(Nc4ccc(Oc5ccn6ncnc6c5)c(C)c4)c3c2F)C(C)C1 (centres unmarked) [Compound 114] :: 7.34
10) C=CC(=O)N1CCN(c2ccc3ncnc(Nc4ccc(Oc5ccc6c(c5)ncn6C)c(C)c4)c3c2)CC1 [Compound 88] :: 7.78
11) C=CC(=O)N1CC2CC1CN2c1ccc2ncnc(Nc3ccc(Cc4ccn5ncnc5c4)c(C)c3)c2n1 (centres unmarked) [Compound 128] :: 7.70
12) C=CC(=O)N1[C@H](C)CN(c2ccc3ncnc(Nc4ccc(Oc5ccn6ncnc6c5)c(C)c4)c3n2)C[C@H]1C [Compound 61] :: 6.60
13) CC#CC(=O)N1CCN(c2ccc3ncnc(Nc4ccc(Oc5ccn6ncnc6c5)c(C)c4)c3n2)CC1 [Compound 8] :: 7.57
14) C=CC(=O)N1CCN(c2cc3c(Nc4ccc(Oc5ccc6c(c5)ncn6C)c(C)c4)ncnc3cn2)C[C@H]1C [Compound 59] :: 7.70
